Test system: MS2 coat protein
Assay comment: apparent KD of MS2 coat protein; designed switch direction (-1 OFF switch, 1 ON switch): -1; higher = weaker reporter binding
Conditions used: Eterna round: R95; input ligand: microRNA oligo, concentration not stated
Note to self: class = bucket of apparent KD of MS2 coat protein, per b0 (below 40 nM), b1 (40 nM to below 50 nM), b2 (50 nM or more)

Q: Where would CUGAGCAGACGGAGAUCCAACAUGAGGAUCACCCAUGUCUCAAAAGCUUUUUGCUCAUCUUAUCGUACCUUGGUGCU [JL ViennaUCT Edcesobi mod 1] (puzzle: Sensor v3, turn-off variant 1) land among the classes by reported apparent KD of MS2 coat protein?
Result: b0

Q: Proceed to ACCAUGUCUGAGGAUAUGCAAGCGUACCACGCGGUAGAAGGCAGCACAUGAGGAUCACCCAUGUGGGUAUGCUA [Inanenqu] (puzzle: Exclusion 6)
Result: b0

Q: # iterate: GAUUAUGCGAGCUUUAGGGACAUGAGGAUCACCCAUGUUCGUCUUAUUAAUCUGGGUACACUAGCAUACCUAAAUCU [JMF 8] (puzzle: Sensor v3, turn-off variant 1)
Result: b1

###

Test system: MS2 coat protein
Assay comment: apparent KD of MS2 coat protein; higher = weaker reporter binding
Conditions used: Eterna round: R107; input ligand: none
Listed next: entries and their corresponding apparent KD of MS2 coat protein.
Lab book: enter the figure in µM, no units written.

The cases that follow already have their apparent KD of MS2 coat protein on record.
sequence_record="CAAUAUAUAUGAAGGAGCGACAUGAGGAUCACCCAUGUCUACCACGUCGAAAGACGCUCAUGUCAGGUAGGUCGCAUAUAUAUUG [Astros-Eli-mod4]" measured_on="MS2 coat protein" reported_metric="apparent KD of MS2 coat protein" quantitative_readout=0.102
sequence_record="UUGGGUUUGCGAAGGAGCGGGAAAUAUAUAUAUAUAAUCCUAACAUGAGGAUCACCCAUGUCCCAGGUAGGUCGCGCGGGUUUGG [12.M]" measured_on="MS2 coat protein" reported_metric="apparent KD of MS2 coat protein" quantitative_readout=0.0595
sequence_record="CUCUGAGUGAGAAAUCACUCAGAGGCGGAUACCAGCGAGGUCCAUCGCCCUUGGCAGCCGAACAUGAGGAUCACCCAUGUCGGUA [#1 Same State - Theophylline A Attempt #21 (HarryS)]" measured_on="MS2 coat protein" reported_metric="apparent KD of MS2 coat protein" quantitative_readout=0.0108
sequence_record="ACAUGAGGAUCACCCAUGUACAUGAGGGAAGGAGCGGUACAUGAGCCAGGUAGGUCGCCCAACAGCAAAUGGCAUGUACAACGGA [hhnmullin]" measured_on="MS2 coat protein" reported_metric="apparent KD of MS2 coat protein" quantitative_readout=0.0784
sequence_record=UGUAUGUGAUCUGAUACCAGUCCAACUGGUAAAGCAUGAGGAACACCCAUGCAAAAUUGGGACCCUUGGCAGCAGAUCGCAUACU measured_on="MS2 coat protein" reported_metric="apparent KD of MS2 coat protein" quantitative_readout=0.247

Q: API: value(readout= apparent KD of MS2 coat protein, system= MS2 coat protein, query= GCUAGGUCUACGGCCGCCACUAGACGUGGGUAAGACAUGAGGAUCACCCAUGUACUACAGGCGCAUAGGACCGGGUAGACCUAGC [SSTB NP+V+V2 #11 Same Structure] )
Result: 0.0789

###

Tested on: MS2 coat protein
Assay comment: apparent KD of MS2 coat protein; designed switch direction (-1 OFF switch, 1 ON switch): 1; higher = weaker reporter binding
Conditions used: Eterna round: R95; input ligand: microRNA oligo, concentration not stated
Quick rule for you: apparent KD of MS2 coat protein at 90 nM or higher means true (1), lower means false (0).

Some entries whose results are on file:
sequence_record="CGGGUACAUGAGGAUCACCCAUGUUGGAGUAAUGCAGGAUAUGUGAGACGAGAAGAUAAAACAGAAGGGCAAGGAG [JR_SS!_Sub009] (puzzle: Same State 1)" label_class="true (1)"
sequence_record="AGUCCAGCCUGAGCUGGACAAGAGCAUGUACAUGAGGAUCACCCAUGUCAUGUACAAGCUUUUUGCUCGUCUUAAAA [Zipper 46 - 2] (puzzle: Sensor for hsa-mir-208a)" label_class="false (0)"
sequence_record="AUCAAAACAAGUUGCAGUGUUCGUCUUUCACAUGAGGAUCACCCAUGUAAUAGCCCAGUGGAAGCGCUCAGGCCACC [Usbi] (puzzle: Sensor for hsa-mir-208a)" label_class="false (0)"
sequence_record="UUGGUGUAGAUACAGGAUAUGUUGAUUGUAACAUGAGGAUCACCCAUGUAUCUAUGAGAUUAAAUGCAGAAGGGUGCACAUCACU [salish99_ss2_r3_090] (puzzle: Same State 2)" label_class="true (1)"
sequence_record="GGUCCAGCCUGAGCUGGACAAAAGCAUGUACAUGAGGAUCACCCAUGUCAUGUACAAGCUUUUUGCUCGUCUUAAAG [Mat - hsa-mir-208a - 85] (puzzle: Sensor for hsa-mir-208a)" label_class="false (0)"

Q: Decide: is the reported value of apparent KD of MS2 coat protein for CUGUGUUGCGGGCAGGAUAUGUACUUGAGUACAUGAGGAUCACCCAUGUGCGGGUGUUUCACCCGACAGAAGGGCCUAUCGCGAC [JL-ss2-3.24 ViennaUCT mod] (puzzle: Same State 2) equal to or greater than 90 nM?
Result: true (1)

Q: Same question for AUCCUACAUGAGGAUCACCCAUGUGACGCCUCGAUAGGAUAUGCGUGUGCCUUGGCGCAUGCAGAAGGAUUGGAGC [JL Aveso mod 5] (puzzle: Same State 1) please.
Result: false (0)

Q: Follow-up entry: GGAGCCGGUACUGAGGAUAUUCAUUUUAAAACAUGAGGAUCACCCAUGUAGGCCAGAAGGCCUUGGGAGAAGGCAGAUCGGCUCC [Biseusra - 6] (puzzle: Same State 2)
Result: true (1)

Q: Try this sequence too: AGUCCAGCCUGAGCUGGACAAAAGCAUGUACAUGAGGAUCACCCAUGUUCAUGUACAAGCUUUUUGCUCGUCUGAAU [Mat - hsa-mir-208a - Mod of JL - 47] (puzzle: Sensor for hsa-mir-208a)
Result: false (0)

Q: How about UCUUGGUUUUUGCUCGUUUUUUGUGUUGAACAUGAGGAUCACCCAUGUAUUGUACGGUCCGGUUUGAUGAUGGUCCA [JMF 46] (puzzle: Sensor for hsa-mir-208a) ?
Result: false (0)

###

Tested on: MS2 coat protein
Assay comment: apparent KD of MS2 coat protein; designed switch direction (-1 OFF switch, 1 ON switch): -1; higher = weaker reporter binding
Conditions used: input ligand: none
Reported values of apparent KD of MS2 coat protein for individual entries
Quick reminder: number only, in nM, skip the unit.

Use the examples below as a reference point.
sequence_record="UAUUUACAUGAGGAUCACCCAUGUUAGGAUAUGUUUCUAUCGUCGAAAGAUGAUAUUUGCAGAAGGGACAAUAU [LRO-Excl01-28 mod derived from EliFisker 4.24] (Eterna round: R97, puzzle: Exclusion 1)" reported_metric="apparent KD of MS2 coat protein" quantitative_readout=24.3
sequence_record="CAAUAUUACUGAGGAUAUCCUAUUGUAUUUCAGGGAGAAGGCAGACUCAACAUGAGGAUCACCCAUGUAAGACGGGUACUAGAU [Ex NG1 #18] (Eterna round: R96, puzzle: Exclusion NG 1)" reported_metric="apparent KD of MS2 coat protein" quantitative_readout=98.2
sequence_record="AAUAGUUGAGUAGGAUAUGCAUCGACCGGCCGAGCAGAAGGACUCGUGAACUUGAGGAUCACCCAAGUGUCCUCGUUUGCUUGA [Mutated MS2 EX1.16] (Eterna round: R96, puzzle: Exclusion NG 1)" reported_metric="apparent KD of MS2 coat protein" quantitative_readout=134

Q: Data request, read-out apparent KD of MS2 coat protein, for GAAAAUGUGGAGGAUAUCGACUUCGAAAGAAGUCGAGAAGGCCACACAUGAGGAUCACCCAUGUGAUGCCUAUA [Omei Ex6 H8] (Eterna round: R97, puzzle: Exclusion 6)
Result: 230

Q: Would you kindly repeat that for CACUUACAUGAGGAUCACCCAUGUGAGGAUAUCGUGACCUGACGAGAAGUCAAUGUCACGAGAAGGUACAUGGG [Exclusion 1 (Mod 1 solution 97 by Eternabot)] (Eterna round: R97, puzzle: Exclusion 1) ?
Result: 68.2

###

Tested on: MS2 coat protein
Assay comment: apparent KD of MS2 coat protein; designed switch direction (-1 OFF switch, 1 ON switch): -1; higher = weaker reporter binding
Conditions used: Eterna round: R95; input ligand: FMN 200 uM
Below, each entry is listed with its recorded apparent KD of MS2 coat protein.
Give a bare numeral; the unit nM is implied.

Solved entries (count: 9):
sequence_record="UUUAAUUUUUUUUUUUUACAAGCUUUUUGCUCGUCUUAUACAUGAGGAUCACCCAUGUGGGUGAAAGAUAAAUUAUC [JMF 5] (puzzle: Sensor v3, turn-off variant 2)" reported_metric="apparent KD of MS2 coat protein" quantitative_readout=54.9
sequence_record="UUUUUGUUUUUGUUUUUUGACAUGAGGAUCACCCAUGUCACGAGCAGAUCUUCAUGCAAGCUUUUUGCUCGUCUUAU [Sensor v3 - Turn-off variant 1 - 39] (puzzle: Sensor v3, turn-off variant 1)" reported_metric="apparent KD of MS2 coat protein" quantitative_readout=62.8
sequence_record="UAUUAGCAAGUAAGAUCCCACAUGAGGAUCACCCAUGUGCUCGUCUUAUAAGGUACUGUGACGAAAGUCACGGUACC [Sensor 3, v1 - 88] (puzzle: Sensor v3, turn-off variant 1)" reported_metric="apparent KD of MS2 coat protein" quantitative_readout=12.6
sequence_record="AAGAGCGUAGGAUAUACAUGAGGAUCACCCAUGUGAGGAGGGAAAAGGAGGUGUGGAAGUAGAAGGACGGAGUG [JR_Exclu3_Sub080] (puzzle: Exclusion 3)" reported_metric="apparent KD of MS2 coat protein" quantitative_readout=31.8
sequence_record="GAUUAUGCGAGCUUUAGGGACAUGAGGAUCACCCAUGUUCGUCUUAUUGAUCUGGGUACACUAACAUACCUAAAUCU [JMF 20] (puzzle: Sensor v3, turn-off variant 1)" reported_metric="apparent KD of MS2 coat protein" quantitative_readout=87.2
sequence_record="GAGGCUAAAGGAUAUACAUGAGGAUCACCCAUGUGGAGGAAGGUUAGAUGAGGAGAAGGUAGAAGGUUAGGCGA [JR_Exclu3_Sub093] (puzzle: Exclusion 3)" reported_metric="apparent KD of MS2 coat protein" quantitative_readout=29.7
sequence_record="CCGGAAAUAGAGGAUAUAGGACUCGAUAGAGUCCUAGAAGGCUAUACAUGAGGAUCACCCAUGUGUCCUACCGG [Fiskers Ex 6 - 64] (puzzle: Exclusion 6)" reported_metric="apparent KD of MS2 coat protein" quantitative_readout=40.7
sequence_record="AGUAACCGUCACGAAAGUGAUGGUUACGCAAGUAAAUGUACAUGAGGAUCACCCAUGUCCUCAAUUGCUCGUCUUAU [Sensor 3 - 52] (puzzle: Sensor v3, turn-off variant 2)" reported_metric="apparent KD of MS2 coat protein" quantitative_readout=663
sequence_record="UUACUAUGUCGCCUAAUAGCUUUUUGCUCGUCUUAUAUUACAUGAGGAUCACCCAUGUAGAUCAUGUGGCGUGACCU [JL ViennaUCT Maridi mod 4] (puzzle: Sensor v3, turn-off variant 2)" reported_metric="apparent KD of MS2 coat protein" quantitative_readout=246

Field: next sequence
Q: Look up apparent KD of MS2 coat protein with MS2 coat protein for this sequence: GAUAGAGAGCAGGAUAUCUUGGGUAAGUAUCAUAGAGAAGGGCUCACAUGAGGAUCACCCAUGUGGUCCAAGAU [Dibira] (puzzle: Exclusion 6)
Result: 42.8
